Target: VHL (Homo sapiens)
Assay: VHL nanoBRET (+Digitonin)
pEC50: −log10 of the molar value.
Examples of compounds with documented pEC50 follow.
Measurement name: pEC50

> print(dat)
                                    compound  value.modifier  value
 1  CNC(=O)[C@@H]1C[C@@H](O)CN1C(=O)[C@H](C1CCN(C(C)=O)CC1)n1cc(C2CC2)nn1               =   5.57
 2  CC(C)(C)[C@@H](C(=O)N1C[C@H](O)C[C@H]1C(N)=O)n1cc(C2CC2)nn1               =   5.67
 3  CNC(=O)[C@@H]1C[C@@H](O)CN1C(=O)[C@H](C(C)C)n1nnc2c(OC)cccc21 (single isomer, unassigned)               =   5.42
 4  CNC(=O)[C@@H]1C[C@@H](O)CN1C(=O)[C@H](C(C)C)n1cc(-c2cncnc2)nn1               =   6.14
 5  CNC(=O)[C@@H]1C[C@@H](O)CN1C(=O)[C@H](C1CCN(C)CC1)n1cc(C2CC2)nn1               =   4.97
 6  CNC(=O)[C@@H]1C[C@@H](O)CN1C(=O)[C@H](C(C)C)n1cc(C2CC2)nn1 (single isomer, unassigned) [Isomer A from Example S11]               =   5.51
 7  CCNC(=O)[C@@H]1C[C@@H](O)CN1C(=O)[C@@H](n1cc(C2CC2)nn1)C(C)(C)C               =   5.41
 8  CC(C)NC(=O)[C@@H]1C[C@@H](O)CN1C(=O)[C@@H](n1cc(C2CC2)nn1)C(C)(C)C               =   5.22
 9  CNC(=O)[C@@H]1C[C@@H](O)CN1C(=O)[C@H](C(C)C)n1cc(-c2cncs2)nn1 (single isomer, unassigned)               =   5.95
10  CNC(=O)[C@@H]1C[C@@H](O)CN1C(=O)[C@H](C1CCNCC1)n1cc(C2CC2)nn1               =   5.05
11  CNC(=O)[C@@H]1C[C@@H](O)CN1C(=O)[C@H](C(C)C)n1cc(-c2ncccn2)nn1               =   5.39
12  CNC(=O)[C@@H]1C[C@@H](O)CN1C(=O)[C@H](C(C)C)n1cc(-c2ccco2)nn1               =   6.05
13  CNC(=O)[C@@H]1C[C@@H](O)CN1C(=O)[C@H](C(C)C)n1nnc2ccccc21 (single isomer, unassigned)               =   5.55
14  CNC(=O)[C@@H]1C[C@@H](O)CN1C(=O)[C@H](C(C)C)n1cc(-c2ccccc2)nn1               =   5.90
15  CNC(=O)[C@@H]1C[C@@H](O)CN1C(=O)[C@H](C(C)C)n1nnc2cc(F)c(F)cc21 (single isomer, unassigned)               =   5.70
16  CNC(=O)[C@@H]1C[C@@H](O)CN1C(=O)[C@@H](C(C)C)n1cc(C2CC2)nn1 (single isomer, unassigned) [Isomer B from Example S11]               <   4.00
17  CNC(=O)[C@@H]1C[C@@H](OC(C)=O)CN1C(=O)[C@@H](n1cc(C2CC2)nn1)C(C)(C)C               =   4.03
18  CNC(=O)[C@@H]1C[C@@H](O)CN1C(=O)[C@H](C(C)C)n1cc(-c2ccccn2)nn1               =   5.70
19  CNC(=O)[C@@H]1C[C@@H](O)CN1C(=O)[C@H](C1CCOCC1)n1cc(C2CC2)nn1 (single isomer, unassigned)               =   5.57
20  CNC(=O)[C@@H]1C[C@@H](O)CN1C(=O)[C@H](C(C)C)n1cc(C2CCC2)nn1               =   5.48
21  CC(C)(C)[C@@H](C(=O)N1C[C@H](O)C[C@H]1C(=O)NC1(C(F)(F)F)CC1)n1cc(C2CC2)nn1               =   5.30
22  CNC(=O)[C@@H]1C[C@@H](O)CN1C(=O)[C@H](C(C)C)n1cc(-c2cnco2)nn1               =   5.67
23  CNC(=O)[C@@H]1C[C@@H](O)CN1C(=O)C(=C(C)C)n1cc(C2CC2)nn1               =   5.31
24  CNC(=O)[C@@H]1C[C@@H](O)CN1C(=O)[C@H](C(C)C)n1cc(C2(C)CC2)nn1               =   5.91

====

Target: VHL (Homo sapiens, UniProt P40337)
Sequence (P40337 whole entry): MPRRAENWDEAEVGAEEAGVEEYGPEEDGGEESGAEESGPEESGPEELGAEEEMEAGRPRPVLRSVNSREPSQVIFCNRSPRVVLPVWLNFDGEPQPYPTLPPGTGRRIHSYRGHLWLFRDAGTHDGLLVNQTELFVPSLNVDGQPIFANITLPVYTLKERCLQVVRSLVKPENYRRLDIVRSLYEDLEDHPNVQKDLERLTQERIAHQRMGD
Sequence (Q15370 whole entry partner): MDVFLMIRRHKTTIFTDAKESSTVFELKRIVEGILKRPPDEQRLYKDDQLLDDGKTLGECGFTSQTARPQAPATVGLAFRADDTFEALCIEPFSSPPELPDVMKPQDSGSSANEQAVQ
Sequence (Q15369 whole entry partner): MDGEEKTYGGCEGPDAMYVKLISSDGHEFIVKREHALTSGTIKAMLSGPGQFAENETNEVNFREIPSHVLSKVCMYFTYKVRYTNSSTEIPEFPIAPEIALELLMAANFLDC
Experiment: VHL nanoBRET (+Digitonin)
pEC50: −log10 of the molar value.
Class 1: pEC50 at least 6. Class -1: pEC50 below 6.

> print(dat)
                                   compound  cat
1  CNC(=O)[C@@H]1C[C@@H](O)CN1C(=O)[C@H](C1CCCCC1)n1cc(-c2ccco2)nn1 (single isomer, unassigned)    1
2  CC(C)(C)[C@@H](C(=O)N1C[C@H](O)C[C@H]1C(=O)NC1CC1)n1cc(C2CC2)nn1   -1
3  CNC(=O)[C@@H]1C[C@@H](O)CN1C(=O)[C@H](C(C)C)n1cc(-c2ccc(Cl)s2)nn1    1
4  CNC(=O)[C@@H]1C[C@@H](O)CN1C(=O)C(n1cc(C2CC2)nn1)C1(C)CCCCC1 (stereo partly drawn)   -1

====

Examples of compounds with documented pEC50 follow.
Molecular target: VHL (Homo sapiens)
Test: VHL nanoBRET (+Digitonin)
pEC50: −log10 of the molar value.
Measurement name: pEC50

> print(dat)
                                   compound  value
1  CNC(=O)[C@@H]1C[C@@H](O)CN1C(=O)[C@@H](n1ccnn1)C(C)(C)C   4.92
2  CC(C)(C)[C@@H](C(=O)N1C[C@H](O)C[C@H]1C(=O)NCCF)n1cc(C2CC2)nn1   5.45
3  CNC(=O)[C@@H]1C[C@@H](O)CN1C(=O)[C@H](C(C)C)n1cc(C2CCCC2)nn1   5.56
4  CNC(=O)[C@@H]1C[C@@H](O)CN1C(=O)[C@@H](n1cc(C2CC2)nn1)C(C)(C)C   5.59
5  CNC(=O)[C@@H]1C[C@@H](O)CN1C(=O)[C@H](C(C)C)n1cc(-c2nccs2)nn1 (mixture of isomers)   5.92
6  CC(C)[C@@H](C(=O)N1C[C@H](O)C[C@H]1C(=O)N(C)C)n1cc(C2CC2)nn1   4.14

====

Target: NanoLuc VHL fusion protein stably expressed in HEK 293 cells (Homo sapiens)
Construct: expressed in transfected cells
Assay: VHL HEK-293 BRET Assay (VHL NanoBRET Target Engagement Assay)
Assay type: cell-based
Settings: ratio of nanoBRET in cells to nanoBRET +Digitonin
Examples of molecules with documented Ratio cell permeability shift follow.
Measurement name: Ratio cell permeability shift

> print(dat)
                                   molecule               measurement.name  value
1  CC(C)(C)[C@@H](C(=O)N1C[C@H](O)C[C@H]1C(=O)NCCF)n1cc(C2CC2)nn1  Ratio cell permeability shift   0.68
2  CNC(=O)[C@@H]1C[C@@H](O)CN1C(=O)[C@@H](n1cc(C2CC2)nn1)C(C)(C)C  Ratio cell permeability shift   1.17
3  CNC(=O)[C@@H]1C[C@@H](O)CN1C(=O)[C@H](C(C)C)n1cc(C2CCCC2)nn1  Ratio cell permeability shift   1.15
4  CCNC(=O)[C@@H]1C[C@@H](O)CN1C(=O)[C@@H](n1cc(C2CC2)nn1)C(C)(C)C  Ratio cell permeability shift   1.07
5  CNC(=O)[C@@H]1C[C@@H](O)CN1C(=O)[C@H](C1CCCCC1)n1cc(-c2ccco2)nn1 (single isomer, unassigned)  Ratio cell permeability shift   0.68
6  CNC(=O)[C@@H]1C[C@@H](O)CN1C(=O)[C@H](C1CCN(C(C)=O)CC1)n1cc(C2CC2)nn1  Ratio cell permeability shift  26.03

====

Target: NanoLuc VHL fusion protein stably expressed in HEK 293 cells (Homo sapiens, UniProt P40337)
Sequence (P40337 whole entry, the tested form may be a part): as the sequence (P40337 whole entry) above
Sequence (Q15370 whole entry partner, the tested form may be a part): as the sequence (Q15370 whole entry partner) above
Sequence (Q15369 whole entry partner, the tested form may be a part): as the sequence (Q15369 whole entry partner) above
Experiment: VHL HEK-293 BRET Assay (VHL NanoBRET Target Engagement Assay)
Conditions: HEK293 cells, nanoBRET; geometric mean where more than one measurement; read-out: VHL binding in cells (HEK293 nanoBRET)
pIC50: −log10 of the molar value.
Class MET: pIC50 at least 6. Class NOT MET: pIC50 below 6.

> print(dat)
                                 cpd.smiles      cat
1  CC(C)(C)[C@@H](C(=O)N1C[C@H](O)C[C@H]1C(=O)NC1CC1)n1cc(C2CC2)nn1  NOT MET
2  CNC(=O)[C@@H]1C[C@@H](O)CN1C(=O)[C@H](C(C)C)n1cc(-c2ccc(Cl)s2)nn1      MET
3  CNC(=O)[C@@H]1C[C@@H](O)CN1C(=O)[C@H](C(C)C)n1cc(-c2cccs2)nn1      MET

Origin of values: patent US12643884B2
